Record form. Attribute: concentration. Fill in for each entry.
- Method Notes: Drug uptake in male syrian golden hamster assessed as lung NTP level at 5 mg/kg, iv after 1 hr
- Type: ADME, organism-based, Mesocricetus auratus
- Design: dose 5 mg/kg, route intravenous
- Test Context: in vivo, read-out: Drug uptake
One number for each entry, in nM.

{"Mol": "Nc1ccn([C@@H]2O[C@@](CO)(CCl)[C@@H](O)[C@H]2F)c(=O)n1", "U": "nM", "concentration": 70.9}

--- query ---
The reported value for CC[C@]1(CO)O[C@@H](n2ccc(N)nc2=O)[C@H](F)[C@@H]1O in terms of concentration is 42.2

----------
Record form. Attribute: AUC(0-inf). Fill in for each entry.
- Method Notes: AUCinf in male syrian golden hamster at 5 mg/kg, iv
- Assay type: ADME, organism-based, Mesocricetus auratus
- Parameters: time infinity, dose 5 mg/kg, route intravenous
- Test Context: plasma
Numbers only, in ng·h/mL.

{"Molecule": "CC[C@]1(CO)O[C@@H](n2ccc(N)nc2=O)[C@H](F)[C@@H]1O", "Value Measured": 2460}

--- query ---
The reported value for Nc1ccn([C@@H]2O[C@@](CO)(CCl)[C@@H](O)[C@H]2F)c(=O)n1 [ALS-8112] in terms of AUC(0-inf) is 3230

----------
- Method Notes: Drug uptake in Non-naive cynomolgus monkey assessed as lung NTP level at 5 mg/kg, po 4'-chloromethyl-2'-deoxy-2'-fluorocytidine equivalent dose after 12 hrs
- Assay type: ADME, organism-based, Macaca fascicularis
- Parameters: dose 5 mg/kg, route oral
- Test Context: in vivo, read-out: Drug uptake
Observed Property: concentration (nM)
One number for each entry, in nM.

Worked examples follow.
{"Mol": "CC(C)C(=O)OC[C@@]1(CCl)O[C@@H](n2ccc(N)nc2=O)[C@H](F)[C@@H]1OC(=O)C(C)C", "concentration (nM)": 1480}
{"Mol": "CC(C)[C@H](N)C(=O)O[C@H]1[C@@H](F)[C@H](n2ccc(N)nc2=O)O[C@@]1(CO)CCl", "concentration (nM)": 915}

--- query ---
The reported value for Nc1ccn([C@@H]2O[C@@](CO)(CCl)[C@@H](O)[C@H]2F)c(=O)n1 in terms of concentration is 185

----------
Record form. Attribute: concentration. Fill in for each entry.
- Method Notes: Drug uptake in male syrian golden hamster assessed as lung NMP level at 5 mg/kg, iv after 1 hr
- Type: ADME, organism-based, Mesocricetus auratus
- Set-up: dose 5 mg/kg, route intravenous
- Test Context: in vivo, read-out: Drug uptake
Reply with the number, then its unit.

{"Mol": "CC[C@]1(CO)O[C@@H](n2ccc(N)nc2=O)[C@H](F)[C@@H]1O", "concentration": "144 nM"}

--- query ---
The reported value for Nc1ccn([C@@H]2O[C@@](CO)(CCl)[C@@H](O)[C@H]2F)c(=O)n1 in terms of concentration is 287 nM

----------
Record form. Attribute: clearance. Fill in for each entry.
- Method Notes: Clearance in Sprague-Dawley rat at 5 mg/kg, iv
- Type: ADME, organism-based
- Parameters: dose 5 mg/kg, route intravenous
- Test Context: in vivo
Numbers only, in mL/min/kg.

Worked examples follow.
{"Mol": "Nc1ccn([C@@H]2O[C@@](CO)(CF)[C@@H](O)[C@H]2F)c(=O)n1", "clearance / mL/min/kg": 2.69}
{"Mol": "Nc1ccn([C@@H]2O[C@@](CO)(CCl)[C@@H](O)[C@H]2F)c(=O)n1", "clearance / mL/min/kg": 31.8}

--- query ---
The reported value for CC[C@]1(CO)O[C@@H](n2ccc(N)nc2=O)[C@H](F)[C@@H]1O in terms of clearance is 25.5

----------
Record form. Attribute: half-life. Fill in for each entry.
- Method Notes: Half life in Non-naive cynomolgus monkey at 5 mg/kg, iv
- Type: ADME, organism-based, Macaca fascicularis
- Design: dose 5 mg/kg, route intravenous
- Test Context: in vivo
One number for each entry, in h.

Worked examples follow.
{"Mol": "CC[C@]1(CO)O[C@@H](n2ccc(N)nc2=O)[C@H](F)[C@@H]1O", "half-life (h)": 7.52}
{"Mol": "Nc1ccn([C@@H]2O[C@@](CO)(CCl)[C@@H](O)[C@H]2F)c(=O)n1", "half-life (h)": 5.44}

--- query ---
The reported value for Nc1ccn([C@@H]2O[C@@](CO)(CF)[C@@H](O)[C@H]2F)c(=O)n1 in terms of half-life is 7.66

----------
- Method Notes: Drug uptake in Non-naive cynomolgus monkey assessed as lung NTP level at 5 mg/kg, iv after 1 hr
- Type: ADME, organism-based, Macaca fascicularis
- Parameters: dose 5 mg/kg, route intravenous
- Test Context: in vivo, read-out: Drug uptake
Record form. Attribute: concentration. Fill in for each entry.
Give bare numbers, in µM.

Worked examples follow.
{"Mol": "Nc1ccn([C@@H]2O[C@@](CO)(CF)[C@@H](O)[C@H]2F)c(=O)n1", "Value Measured": 0.374}
{"Mol": "CC[C@]1(CO)O[C@@H](n2ccc(N)nc2=O)[C@H](F)[C@@H]1O", "Value Measured": 3.07}

The reported value for Nc1ccn([C@@H]2O[C@@](CO)(CCl)[C@@H](O)[C@H]2F)c(=O)n1 in terms of concentration is 4.07

----------
- Method Notes: AUCinf in Sprague-Dawley rat at 5 mg/kg, iv
- Type: ADME, organism-based
- Design: time infinity, dose 5 mg/kg, route intravenous
- Test Context: plasma
Record form. Attribute: AUC(0-inf). Fill in for each entry.
Reply with the number, then its unit.

Worked examples follow.
{"Compound": "CC[C@]1(CO)O[C@@H](n2ccc(N)nc2=O)[C@H](F)[C@@H]1O", "Observed Property": "AUC(0-inf)", "Value Measured": "3140 ng·h/mL"}
{"Compound": "Nc1ccn([C@@H]2O[C@@](CO)(CF)[C@@H](O)[C@H]2F)c(=O)n1", "Observed Property": "AUC(0-inf)", "Value Measured": "31800 ng·h/mL"}

--- query ---
The reported value for Nc1ccn([C@@H]2O[C@@](CO)(CCl)[C@@H](O)[C@H]2F)c(=O)n1 [ALS-8112] in terms of AUC(0-inf) is 2670 ng·h/mL

----------
- Method Notes: Cytotoxicity against human HeLa cells assessed as cell viability by CellTiter-Glo luminescent assay
- Type: cell-based
Record form. Attribute: CC50. Fill in for each entry.

{"Compound": "CCCCCCCC(=O)OC[C@@]1(CCl)O[C@@H](n2ccc(N)nc2=O)[C@H](F)[C@@H]1O", "Value Measured": "> 100 µM"}
{"Compound": "CC[C@]1(CO)O[C@@H](n2ccc(N)nc2=O)[C@H](F)[C@@H]1O", "Value Measured": "> 100 µM"}
{"Compound": "Nc1ccn([C@@H]2O[C@@](CO)(CCl)[C@@H](O)[C@H]2F)c(=O)n1 [ALS-8112]", "Value Measured": "> 100 µM"}
{"Compound": "Nc1ccn([C@@H]2O[C@@](CO)(CCl)[C@@H](O)C2(F)F)c(=O)n1", "Value Measured": "62 µM"}
{"Compound": "CC(C)C(=O)OC[C@@]1(CCl)O[C@@H](n2ccc(N)nc2=O)[C@H](F)[C@@H]1O", "Value Measured": "> 90 µM"}
{"Compound": "CCCCCCCCCCCC(=O)O[C@H]1[C@@H](F)[C@H](n2ccc(N)nc2=O)O[C@@]1(CO)CCl", "Value Measured": "> 89 µM"}

# batch size: 8; output CC50 per entry
1. Nc1ccn([C@@H]2O[C@@](CO)(C3CC3)[C@@H](O)[C@H]2F)c(=O)n1
2. CSC[C@]1(CO)O[C@@H](n2ccc(N)nc2=O)[C@H](F)[C@@H]1O
3. C=CC[C@]1(CO)O[C@@H](n2ccc(N)nc2=O)[C@H](F)[C@@H]1O
4. [N-]=[N+]=N[C@]1(CO)O[C@@H](n2ccc(N)nc2=O)[C@@H](O)[C@@H]1O
5. [N-]=[N+]=N[C@]1(CO)O[C@@H](n2ccc(N)nc2=O)[C@H](O)[C@@H]1O [4'-AZIDOCYTIDINE]
6. [N-]=[N+]=N[C@]1(CO)O[C@@H](n2ccc(N)nc2=O)C(F)(F)[C@@H]1O
7. Nc1ccn([C@@H]2O[C@@](CO)(CCl)[C@@H](O)[C@@H]2O)c(=O)n1
8. Nc1ccn([C@@H]2O[C@@](CO)(CBr)[C@@H](O)[C@H]2F)c(=O)n1

OUT:
> 100 µM
> 63 µM
> 100 µM
> 100 µM
> 80 µM
> 100 µM
> 100 µM
> 100 µM

# batch size: 7; output CC50 per entry
1. C=C[C@]1(CO)O[C@@H](n2ccc(N)nc2=O)[C@H](F)[C@@H]1O
2. CCCCCC(=O)OC[C@@]1(CCl)O[C@@H](n2ccc(N)nc2=O)[C@H](F)[C@@H]1OC(=O)CCCCC
3. CCC[C@]1(CO)O[C@@H](n2ccc(N)nc2=O)[C@H](F)[C@@H]1O
4. [N-]=[N+]=N[C@]1(CO)O[C@@H](n2ccc(N)nc2=O)[C@H](F)[C@@H]1O
5. CO[C@]1(CO)O[C@@H](n2ccc(N)nc2=O)[C@H](F)[C@@H]1O
6. CCC(=O)OC[C@@]1(CCl)O[C@@H](n2ccc(N)nc2=O)[C@H](F)[C@@H]1OC(=O)CC
7. CC(C)C(=O)O[C@H]1[C@@H](F)[C@H](n2ccc(N)nc2=O)O[C@@]1(CO)CCl

OUT:
["> 100 µM", "> 100 µM", "> 100 µM", "> 100 µM", "> 100 µM", "> 100 µM", "> 88 µM"]

# batch size: 2; output CC50 per entry
1. C#C[C@]1(CO)O[C@@H](n2ccc(N)nc2=O)[C@H](F)[C@@H]1O
2. CCCCCCCC(=O)OC[C@@]1(CCl)O[C@@H](n2ccc(N)nc2=O)[C@H](F)[C@@H]1OC(=O)CCCCCCC

OUT:
1: > 100 µM; 2: > 66 µM
